Recorded values, source paper PMC9749988.

# Target Under Test: A1R (Mus musculus, UniProt Q60612)
# Construct: To obtain the P1 fraction, cerebral cortex and spinal cord were homogenized in chilled sucrose; from tissue; host or cells: cerebral cortex and spinal cord membranes (P1 fraction) of SOD1-G93A transgenic and WT B6SJL mice
# Sequence (Q60612 1-326): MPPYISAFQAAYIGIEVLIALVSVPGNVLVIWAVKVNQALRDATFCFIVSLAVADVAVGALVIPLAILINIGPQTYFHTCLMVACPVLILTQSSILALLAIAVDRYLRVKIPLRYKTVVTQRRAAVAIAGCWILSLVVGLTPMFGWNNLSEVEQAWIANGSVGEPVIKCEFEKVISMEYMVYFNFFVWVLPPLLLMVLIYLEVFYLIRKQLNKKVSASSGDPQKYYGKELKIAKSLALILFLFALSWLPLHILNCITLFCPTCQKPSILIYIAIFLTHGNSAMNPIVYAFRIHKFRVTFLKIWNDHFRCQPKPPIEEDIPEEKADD
# Format: binding
# Measurement Context: spinal cord; pre-symptomatic SOD1^G93A mice (4–6 weeks old); mean ± SEM; read-out: DPCPX equilibrium dissociation constant (KD)
pKd: −log10 of the molar value.

| Compound | pKd |
| --- | --- |
| CCCn1c(=O)c2[nH]c(C3CCCC3)nc2n(CCC)c1=O [DPCPX, [^3H]-8-Cyclopentyl-1,3-dipropylxanyine] | 7.92 |

---

# Target Under Test: A1R (Mus musculus, UniProt Q60612)
# Construct: To obtain the P1 fraction, cerebral cortex and spinal cord were homogenized in chilled sucrose; from tissue; host or cells: cerebral cortex and spinal cord membranes (P1 fraction) of SOD1-G93A transgenic and WT B6SJL mice
# Format: binding
# Measurement Context: cortex; pre-symptomatic SOD1^G93A mice (4–6 weeks old); mean ± SEM; read-out: DPCPX equilibrium dissociation constant (KD)
pKd: −log10 of the molar value.
Measurement Label: pKd

| Molecule | Measurement Label | Reported |
| --- | --- | --- |
| CCCn1c(=O)c2[nH]c(C3CCCC3)nc2n(CCC)c1=O [DPCPX, [^3H]-8-Cyclopentyl-1,3-dipropylxanyine] | pKd | 8.30 |

---

# Target Under Test: A1R (Mus musculus)
# Construct: To obtain the P1 fraction, cerebral cortex and spinal cord were homogenized in chilled sucrose; from tissue; host or cells: cerebral cortex and spinal cord membranes (P1 fraction) of SOD1-G93A transgenic and WT B6SJL mice
# Sequence (Q60612 1-326): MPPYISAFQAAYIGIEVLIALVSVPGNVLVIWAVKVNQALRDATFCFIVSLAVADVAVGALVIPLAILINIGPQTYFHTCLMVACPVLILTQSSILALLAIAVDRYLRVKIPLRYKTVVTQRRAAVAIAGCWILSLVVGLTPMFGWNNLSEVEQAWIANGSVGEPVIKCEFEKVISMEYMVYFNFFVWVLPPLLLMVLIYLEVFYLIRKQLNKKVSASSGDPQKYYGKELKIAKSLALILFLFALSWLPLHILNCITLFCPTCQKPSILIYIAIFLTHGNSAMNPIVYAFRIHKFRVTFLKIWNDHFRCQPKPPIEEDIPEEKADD
# Type: binding
# Measurement Context: cortex; WT mice age-matched to symptomatic (12–14 weeks old); mean ± SEM; read-out: DPCPX equilibrium dissociation constant (KD)

| Compound | Target Under Test | Kd |
| --- | --- | --- |
| CCCn1c(=O)c2[nH]c(C3CCCC3)nc2n(CCC)c1=O [DPCPX, [^3H]-8-Cyclopentyl-1,3-dipropylxanyine] | A1R (Mus musculus) | 7.98 nM |
